The reported numbers originate from paper PMC2713172.

# target_under_test: CYP2C9 F100L mutant (Homo sapiens, UniProt P11712, F100L)
# assay: biochemical
reported_metric: Kd (nM)

1. C[C@H](C(=O)O)c1ccc(-c2ccccc2)c(F)c1 [(S)-flurbiprofen] ... 2200

====

# target_under_test: CYP2C9 F114W mutant (Homo sapiens, UniProt P11712, F114W)
# assay: in vitro
# protocol_conditions: pH 7.4
reported_metric: Km at 20 min (µM)

1) C[C@H](C(=O)O)c1ccc(-c2ccccc2)c(F)c1 [(S)-flurbiprofen] ... 19.5

====

# target_under_test: CYP2C9 F476W mutant (Homo sapiens, UniProt P11712, F476W)
# assay: in vitro
# protocol_conditions: pH 7.4
reported_metric: Km at 20 min

1. C[C@H](C(=O)O)c1ccc(-c2ccccc2)c(F)c1 [(S)-flurbiprofen] ... 105 µM
